B1: library; a variant is named by its letters at N, in order (parent)
chain: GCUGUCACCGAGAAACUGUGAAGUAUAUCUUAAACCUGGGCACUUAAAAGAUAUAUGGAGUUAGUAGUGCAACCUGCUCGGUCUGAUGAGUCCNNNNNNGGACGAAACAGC

Variants of: B1
Assay: normalized RNA/DNA level without ligand (relative to sTRSVctl = 100) (log10 (% of sTRSVctl)); HEK293T; ligand: cyclic di-GMP (c-di-GMP-II aptamer); higher = less ribozyme self-cleavage, higher mRNA level
Conditions: reporter: mCherry (pCS4076), ligand present: no
outcome-measure: normalized RNA/DNA level without ligand (log10)
Give the value as a plain number.

# query: normalized RNA/DNA level without ligand (log10) of entry CCCUCA
1.58

Moving on to GUUAGA
1.51

Record: UAAAAA
1.65

Lookup ACGAAC
1.53

How about this variant: AUGUGG
1.59

Param item: GGGAUU
1.66

Likewise for UACGAA ?
1.61

Also check ACUGAG
1.54

Queued: GUUUAG
1.59

Try the variant AUCUUU
1.69

What do you have for CAUCAG ?
1.69

Can you handle UAGGAC next?
1.53

Cool, now GAGGGU
1.71

Moving on to the next variant: CCCGCA
1.66

Repeat for the following variant: UAUGUG
1.71

Another variant: AAAUUC
1.69

Query GUAGAA next
1.39

Would you mind doing CAUGAC as well?
1.63

Entry UGUAAG please
1.73

And for CAGAGC ?
1.67

Another: CAUAUU
1.45

Repeat with ACGACU
1.51
